assay: in vitro; conditions: human, Caco-2, Caco-2 permeability P (A-B), apical to basolateral
*1 amine or outer side, *2 acyl side, *3 side chain or, on linkers, in order; H or OH if unused. Where a SMILES comes first, the peptide text is derived from it. [ ]: non-standard residue; d: D form. X1 = C#CCn1cc(C[C@H](N[*:1])C(=O)[*:2])c2ccccc21; NMeLeu(5-OH,4R) = CN[C@@H](C[C@@H](C)CO)C(=O)O; NMeL = CN[C@@H](CC(C)C)C(=O)O
property.measured: Papp A→B (nm/s)
Numbers only, in nm/s.

I would be grateful if you could share the reported Papp A→B for C#CCn1cc(C[C@@H]2NC(=O)[C@H](C(C)C)NC(=O)[C@H](CC(C)C)N(C)C(=O)[C@H](C(C)C)NC(=O)[C@H](Cc3ccccc3)NC(=O)[C@H](C)NC(=O)[C@H](C[C@@H](C)CO)N(C)C2=O)c2ccccc21 [SI-72] (cyclo(AFV[NMeL]V[X1][NMeLeu(5-OH,4R)])) .
2
